# Tested on: P. aeruginosa ATCC10145
# method description: Well diffusion inhibition zone, P. aeruginosa
# experimental conditions: Pseudomonas aeruginosa, ATCC10145, read-out: Inhibition zone P. aeruginosa ATCC10145
Label MET when zone of inhibition at 100 µg/mL is at or above 8 mm; anything below gets NOT MET.

INSERT INTO assay_data (compound, answer_label) VALUES
  ('CC1=NN(C(=S)NC(=O)c2c(N)nc3c(c2-c2ccc(Cl)cc2)c(=O)n(C)c(=O)n3C)C(=O)C1 [Compound 16]', 'MET'),
  ('CCOC(=O)c1c(N)nc2c(c1-c1ccc(Cl)cc1)c(=O)n(C)c(=O)n2C [Compound 1]', 'MET'),
  ('Cn1c(=O)c2c(-c3ccc(Cl)cc3)c(-c3nn(CCc4nn[nH]n4)c(=S)o3)c(N)nc2n(C)c1=O [Compound 10]', 'NOT MET'),
  ('Cn1c(=O)c2c(-c3ccc(Cl)cc3)c(-c3nnc4n3N=C(Cl)CS4)c(N)nc2n(C)c1=O [Compound 14]', 'MET'),
  ('Cn1c(=O)c2c(-c3ccc(Cl)cc3)c(C3=NN=C4N=CNC(=O)C43)c(N)nc2n(C)c1=O (stereo not shown) [Compound 11]', 'MET'),
  ('Cn1c(=O)c2c(-c3ccc(Cl)cc3)c(-c3nnc(S)n3N)c(N)nc2n(C)c1=O [Compound 4]', 'NOT MET'),
  ('Cn1c(=O)c2c(-c3ccc(Cl)cc3)c(-c3nn(CCC#N)c(=S)o3)c(N)nc2n(C)c1=O [Compound 9]', 'NOT MET');

---

Readings of IC50 at 48 h for the listed compounds
# method description: in vitro
# experimental conditions: human, WI-38 normal lung fibroblast cells
assay readout: IC50 at 48 h (µM)

INSERT INTO measurements (compound, assay_readout, lt_gt_eq, measurement) VALUES
  ('Cn1c(=O)c2c(-c3ccc(Cl)cc3)c(-c3nn(CCc4nn[nH]n4)c(=S)o3)c(N)nc2n(C)c1=O', 'IC50 at 48 h', '=', 37.9),
  ('Cn1c(=O)c2c(-c3ccc(Cl)cc3)c(C(=O)NC(=S)NN)c(N)nc2n(C)c1=O', 'IC50 at 48 h', '=', 35.2),
  ('Cn1c(=O)c2c(-c3ccc(Cl)cc3)c(-c3nnc(S)o3)c(N)nc2n(C)c1=O', 'IC50 at 48 h', '=', 26.8),
  ('Cn1c(=O)c2c(-c3ccc(Cl)cc3)c(C3=NN=C4N=CN=C(N)C43)c(N)nc2n(C)c1=O (centres unmarked)', 'IC50 at 48 h', '=', 18.2),
  ('Cn1c(=O)c2c(-c3ccc(Cl)cc3)c(C3=NN=C(N)C3C#N)c(N)nc2n(C)c1=O (centres unmarked)', 'IC50 at 48 h', '=', 25.2),
  ('Cn1c(=O)c2c(-c3ccc(Cl)cc3)c(C(=O)NN)c(N)nc2n(C)c1=O', 'IC50 at 48 h', '=', 64.1),
  ('Cn1c(=O)c2c(-c3ccc(Cl)cc3)c(-c3nnc(S)n3N)c(N)nc2n(C)c1=O', 'IC50 at 48 h', '=', 46.1),
  ('Cn1c(=O)c2c(-c3ccc(Cl)cc3)c(C3=NN=C4N=CNC(=O)C43)c(N)nc2n(C)c1=O (centres unmarked)', 'IC50 at 48 h', '>', 100);
